# METHOD_DESCRIPTION: Metabolic stability in human liver microsomes at 1 uM after 20 mins in presence of NADPH by HPLC analysis
# Assay type: ADME, microsome
MEASURE: Stability (µL/min/mg)

Cc1cc(-c2nc3cccnn3c2-c2ccnc(NC(=O)c3ccncc3)c2)ccc1F ... 177
Cc1cc(C(=O)Nc2cc(-c3c(-c4ccc(F)c(C)c4)nc4cccnn34)ccn2)ccn1 ... 132

----------
# METHOD_DESCRIPTION: AUC in Crl:CD(SD) rat at 3 mg/kg, po by LC-MS/MS analysis
# Assay type: ADME, organism-based
# EXPERIMENTAL_CONDITIONS: in vivo
MEASURE: AUC (ng·h/mL)

(A) Cc1cc(-c2nc3cccnn3c2-c2ccnc(NC(=O)c3cc[n+]([O-])c(C)c3)c2)ccc1F
(B) Cc1cc(-c2nc3cccnn3c2-c2ccnc(NC(=O)c3cc[n+]([O-])c(C)c3)c2)ccc1F.O=S(=O)(O)O
Prompt line: API: POST /compare with A and B ; response names the item with higher AUC. Choose, then provide that item's label.
Response line: B
(B: 2130 ng·h/mL, A: 703 ng·h/mL)

----------
# METHOD_DESCRIPTION: Tmax in Crl:CD(SD) rat at 3 mg/kg, po by LC-MS/MS analysis
# Format: ADME, organism-based
# EXPERIMENTAL_CONDITIONS: in vivo
MEASURE: Tmax (h)

Cc1cc(-c2nc3cccnn3c2-c2ccnc(NC(=O)c3cc[n+]([O-])c(C)c3)c2)ccc1F ... 2
Cc1cc(-c2nc3cccnn3c2-c2ccnc(NC(=O)c3cc[n+]([O-])c(C)c3)c2)ccc1F.O=S(=O)(O)O ... 1.67

----------
# METHOD_DESCRIPTION: Aqueous solubility in pH 6.8 buffer solution by HPLC analysis
# Assay type: physicochemical
# EXPERIMENTAL_CONDITIONS: pH 6.8 buffer solution, read-out: solubility
MEASURE: solubility (µg/mL)

Cc1cc(-c2nc3cccnn3c2-c2ccnc(NC(=O)c3cccnc3)c2)ccc1F ... 0.92
Cc1ccc(C(=O)Nc2cc(-c3c(-c4ccc(F)c(C)c4)nc4cccnn34)ccn2)cn1 ... 0.38
Cc1cc(-c2nc3cccnn3c2-c2ccnc(NC(=O)c3cc[n+]([O-])c(C)c3)c2)ccc1F ... 0.91
Cc1cc(-c2nc3cccnn3c2-c2ccnc(NC(=O)c3ccncc3)c2)ccc1F ... 0.75

(a) Cc1cc(-c2nc3cccnn3c2-c2ccnc(NC(=O)c3ccc(C)[n+]([O-])c3)c2)ccc1F
(b) Cc1cc(C(=O)Nc2cc(-c3c(-c4ccc(F)c(C)c4)nc4cccnn34)ccn2)ccn1
Prompt line: Which entry shows the lesser value of solubility here, a or b ? Give the label under which the chosen entry appears.
Response line: b
(b: 0.15 µg/mL, a: 2.4 µg/mL)

----------
# METHOD_DESCRIPTION: Oral bioavailability in Crl:CD(SD) rat at 3 mg/kg by LC-MS/MS analysis
# Assay type: ADME, organism-based
# EXPERIMENTAL_CONDITIONS: in vivo
MEASURE: bioavailability (%)

(A) Cc1cc(-c2nc3cccnn3c2-c2ccnc(NC(=O)c3cc[n+]([O-])c(C)c3)c2)ccc1F.O=S(=O)(O)O
(B) Cc1cc(-c2nc3cccnn3c2-c2ccnc(NC(=O)c3cc[n+]([O-])c(C)c3)c2)ccc1F
Prompt line: I would appreciate it if you could say which entry, A or B , has the lower bioavailability value. Provide the label of your selected option as the answer.
Response line: B
(B: 13.5%, A: 42.6%)

----------
# METHOD_DESCRIPTION: Cmax in Crl:CD(SD) rat at 3 mg/kg, po by LC-MS/MS analysis
# Assay type: ADME, organism-based
# Design: dose 3 mg/kg, route oral
# EXPERIMENTAL_CONDITIONS: in vivo
MEASURE: Cmax (ng/mL)

(A) Cc1cc(-c2nc3cccnn3c2-c2ccnc(NC(=O)c3cc[n+]([O-])c(C)c3)c2)ccc1F.O=S(=O)(O)O
(B) Cc1cc(-c2nc3cccnn3c2-c2ccnc(NC(=O)c3cc[n+]([O-])c(C)c3)c2)ccc1F
Prompt line: // compare measured Cmax, left A , right B , return larger Write down the label of the entry you select.
Response line: A

Where do these numbers come from? They come from ChEMBL document CHEMBL4219055.
